Item-by-item account of % cells bound
Molecular target: T1, human IL-12Rβ2 (human, UniProt Q99665 24-862)
T1 construct: Expressed on HEK293T cells transiently transfected with a pcDNA3 plasmid (Genscript clone OHu21785); also called hIL-12RB2; IL-12 receptor β2 subunit
T1 sequence: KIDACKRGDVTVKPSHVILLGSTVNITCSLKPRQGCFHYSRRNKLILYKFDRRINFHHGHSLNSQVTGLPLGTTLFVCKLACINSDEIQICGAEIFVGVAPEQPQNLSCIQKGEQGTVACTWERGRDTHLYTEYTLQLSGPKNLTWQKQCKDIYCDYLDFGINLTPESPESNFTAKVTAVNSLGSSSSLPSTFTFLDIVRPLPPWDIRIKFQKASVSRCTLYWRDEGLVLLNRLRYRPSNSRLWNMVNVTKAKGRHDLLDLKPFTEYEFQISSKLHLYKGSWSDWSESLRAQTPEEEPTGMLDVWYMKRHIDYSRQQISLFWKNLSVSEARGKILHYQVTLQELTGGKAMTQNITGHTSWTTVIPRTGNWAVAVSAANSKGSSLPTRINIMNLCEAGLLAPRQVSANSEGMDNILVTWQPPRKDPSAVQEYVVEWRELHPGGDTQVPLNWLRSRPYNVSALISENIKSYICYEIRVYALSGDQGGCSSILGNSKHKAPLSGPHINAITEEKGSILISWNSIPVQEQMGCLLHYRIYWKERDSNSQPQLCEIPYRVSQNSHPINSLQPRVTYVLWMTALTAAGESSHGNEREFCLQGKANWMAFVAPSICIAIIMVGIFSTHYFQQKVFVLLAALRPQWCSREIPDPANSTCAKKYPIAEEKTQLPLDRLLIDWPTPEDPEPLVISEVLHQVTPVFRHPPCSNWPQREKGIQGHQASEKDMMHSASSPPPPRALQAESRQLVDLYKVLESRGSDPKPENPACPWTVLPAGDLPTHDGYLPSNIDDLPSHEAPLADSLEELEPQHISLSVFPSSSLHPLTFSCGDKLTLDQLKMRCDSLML
Test: flow cytometry, P.E. on transfected HEK293T cells
Dear colleague, please return just the value in %, with no unit written.

Query block: Give % cells bound for the following binder: anti-IL-12Rβ2 VHH clone 3CRHS31 (VHH, not shown: small tags and cut ends, periplasmic extract) VHH: QVQLQESGGGLVQAGGSLRLSCAASGFTFSTYAMSWVRQAPGKGLEWVSSVNSGGLSTDYADSVEGRFTISRDDAKNMLFLQMNSLKPEDTARYYCAKYEDCSDYVCDRAGYWGQGTQVTVSS
Result block: 42.8

Query block: Give % cells bound for the following binder: anti-IL-12Rβ2 VHH clone 3CAH48 (VHH, not shown: small tags and cut ends, periplasmic extract; also called 20360) VHH: QVQLQESGGGLVQAGGSLRLSCAASGRTFSSYAMGWFRQGPGKEREFVAAISWSGVSTYYADSVKGRFTISRDNAKNTVYLQMNSLRPEDTAVYYCAATEGAYTVAGGSTFGYDMDYWGKGTQVTVSS
Result block: 39.4

Query block: Give % cells bound for the following binder: anti-IL-12Rβ2 VHH clone 3CRHM20 (VHH, not shown: small tags and cut ends, periplasmic extract; also called 21055) VHH: QVQLQESGGGLVQAGGSLRLSCAASGRTFSKSTMGWFRQTPGKEREFVAAITWTDTEVYANSVKDRFTISRDNAKNTFYLQMHSLKLEDTAVYYCAGDRYGSSRDSVFSSPTNYPYWGQGTQVTVSS
Result block: 28.7

Query block: Give % cells bound for the following binder: anti-IL-12Rβ2 VHH clone 3CRH38 (VHH, not shown: small tags and cut ends, periplasmic extract) VHH: QVQLQESGGGLVQAGGSLVLSCAASGSAALIFLMSWYRQAPGKQRELVAEVSRGGSTTYADSVEGRFTISRDNAKNIVDLQMNSLKPEDTAVYYCKADQNYGDSLRSSWGRGTQVTVSS
Result block: 31.8
